System: acute lymphoblastic leukemia cells CCRF-CEM (K-RasG12D)
experimental.protocol: Cell growth inhibition, suspension cells CCRF-CEM
Type: cell-based
condition.description: Homo sapiens, 1 μM, 72 hours, read-out: CCRF-CEM (KRasG12D) % inhibition at 1 μM
Give yes when the value for inhibition at 1 µM is at least 60%. Give no when it is less.

# molecule, classification
measured = [
    ("CC(=O)N1C(=Cc2cc(F)c(OCC(=O)N3CCOCC3)c(F)c2)C(=O)c2ccccc21 (racemic) [Example 19]", "yes"),
    ("COc1cc(/C=C2/C(=O)c3ccccc3N2C(C)=O)ccc1OCC(N)=O [Example 1]", "no"),
    ("CC(=O)N1/C(=C\\c2ccc3cc(CN4CCOCC4)ccc3n2)C(=O)c2ccccc21 [Example 35]", "no"),
    ("CCOc1cc(/C=C2/C(=O)c3ccccc3N2C(C)=O)ccc1OCC(N)=O [Example 13]", "no"),
    ("COCCOc1ccc(/C=C2/C(=O)c3ccccc3N2C(C)=O)cc1OC [Example 11]", "no"),
    ("CC(=O)N1C(=Cc2ccc(OCC(=O)N3CCOCC3)c(F)c2)C(=O)c2ccccc21 (racemic) [Example 16]", "no"),
]

* * *

Measured inhibition at 100 µM, listed per entry.
target.system: GTPγS-bound human HRasG12V / human c-Raf-1 Ras binding domain (RBD) (Homo sapiens (Human), UniProt P01112, G12V)
Sequence (P01112 whole entry G12V, the tested form may be a part): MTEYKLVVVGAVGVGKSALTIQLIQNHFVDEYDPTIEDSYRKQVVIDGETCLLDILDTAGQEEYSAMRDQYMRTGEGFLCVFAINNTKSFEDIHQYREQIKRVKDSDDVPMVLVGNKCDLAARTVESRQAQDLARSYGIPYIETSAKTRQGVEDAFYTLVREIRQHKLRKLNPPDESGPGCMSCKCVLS
experimental.protocol: Ras-Raf binding inhibition ELISA
test.readout: inhibition at 100 µM (%)

# molecule, reported.value
rows = [
    ("COc1cc(/C=C2/C(=O)c3ccccc3N2C(C)=O)ccc1O [Example 3]", 57),
    ("COc1cc(/C=C2/C(=O)c3ccccc3N2C(C)=O)ccc1OCCOc1ccccc1 [Example 12]", 49),
    ("COc1cc(/C=C2/C(=O)c3ccccc3N2C(C)=O)ccc1OCCN1CCOCC1 [Example 7]", 83),
    ("CC(=O)N1/C(=C\\c2ccc(OCC(N)=O)c(OC(C)C)c2)C(=O)c2ccccc21 [Example 30]", 63),
    ("CC(=O)N1/C(=C\\c2ccc(OCC(N)=O)cc2)C(=O)c2ccccc21 [Example 5]", 71),
]

* * *

Listing of recorded IC50 by entry.
target.system: GTPγS-bound human HRasG12V / human c-Raf-1 Ras binding domain (RBD) (Homo sapiens (Human), UniProt P01112, G12V)
experimental.protocol: Ras-Raf binding inhibition ELISA
condition.description: anti-HRas antibody 259 (*); read-out: ELISA IC50 (μM): 1st Ab_259 (*)
test.readout: IC50 (µM)

# compound, test.readout, measure.unit, reported.value
measured = [
    ("CC(=O)N1/C(=C\\c2ccc3oc(C(=O)N4CCOCC4)cc3n2)C(=O)c2ccccc21", "IC50", "µM", 3.6),
    ("CC(=O)N1/C(=C\\c2ccc3cc(CN4CCN(C5COC5)CC4)ccc3n2)C(=O)c2ccccc21", "IC50", "µM", 0.71),
    ("CC(=O)N1/C(=C\\c2nc3cc(CNC4CCOCC4)ccc3s2)C(=O)c2ccccc21", "IC50", "µM", 1.2),
    ("CC(=O)N1/C(=C\\c2ccc3cc(CNC4CCN(C5COC5)CC4)ccc3n2)C(=O)c2ccccc21", "IC50", "µM", 0.88),
    ("CC(=O)N1/C(=C\\c2nc3cc(C(=O)N4CC(C)OC(C)C4)ccc3s2)C(=O)c2ccccc21 (centres unmarked)", "IC50", "µM", 0.68),
    ("CC(=O)N1/C(=C\\c2nc3ccc(CNC4CCOCC4)cc3s2)C(=O)c2ccccc21", "IC50", "µM", 1.1),
    ("CC(=O)N1/C(=C\\c2ccc3cc(CNC4CC(C)O[C@H](C)C4)ccc3n2)C(=O)c2ccccc21 (mixture of isomers)", "IC50", "µM", 1.3),
    ("CC(=O)N1/C(=C\\c2ccc3cc(/C=C/C(=O)N4CCN(C5COC5)CC4)ccc3n2)C(=O)c2ccccc21", "IC50", "µM", 0.93),
    ("CC(=O)N1/C(=C\\c2nc3ccc(C(=O)N4CC(C)OC(C)C4)cc3s2)C(=O)c2ccccc21 (centres unmarked)", "IC50", "µM", 0.77),
    ("CC(=O)N1/C(=C\\c2ccc3cc(CNC4CCS(=O)(=O)CC4)ccc3n2)C(=O)c2ccccc21", "IC50", "µM", 1.8),
    ("CC(=O)N1/C(=C\\c2ccc3cc(CNC4C[C@@H](C)O[C@@H](C)C4)ccc3n2)C(=O)c2ccccc21 (mixture of isomers)", "IC50", "µM", 1.7),
]

* * *

inhibition at 1 µM listing for selected compounds.
target.system: GTPγS-bound human HRasG12V / human c-Raf-1 Ras binding domain (RBD) (Homo sapiens (Human), UniProt P01112, G12V)
experimental.protocol: Ras-Raf binding inhibition ELISA
test.readout: inhibition at 1 µM (%)

# item.smiles, reported.value
records = [
    ("CC(=O)N1/C(=C\\c2cc(-c3ccc4ccccc4c3)c3cc(C(=O)O)ccc3n2)C(=O)c2ccccc21", 61.4),
    ("CC(=O)N1/C(=C\\c2cc(-c3cccc4cccnc34)c3cc(CNC4CCOCC4)ccc3n2)C(=O)c2ccccc21", 62.2),
    ("CC(=O)N1/C(=C\\c2ccc3c(-c4cccc5ccccc45)c(C(=O)N4CCOCC4)ccc3n2)C(=O)c2ccccc21", 55.7),
]

* * *

In this section, each of the compounds is paired with its reported IC50.
target.system: GTPγS-bound human HRasG12V / human c-Raf-1 Ras binding domain (RBD) (Homo sapiens (Human), UniProt P01112, G12V)
experimental.protocol: Ras-Raf binding inhibition ELISA
condition.description: anti-HRas antibody C-20; read-out: ELISA IC50 (μM): 1st Ab_C-20
test.readout: IC50

# item.smiles, test.readout, reported.value
records = [
    ("CC(=O)N1/C(=C\\c2cc(CN3CCOCC3)c3ccccc3n2)C(=O)c2ccccc21", "IC50", "2.4 µM"),
    ("CC(=O)N1/C(=C\\c2cc(-c3cccc4cccnc34)c3cc(C(=O)O)ccc3n2)C(=O)c2ccccc21", "IC50", "0.7 µM"),
    ("CC(=O)N1/C(=C\\c2cc(-c3cccc4ccccc34)c3cc(C(=O)O)ccc3n2)C(=O)c2ccccc21", "IC50", "1.1 µM"),
    ("CC(=O)N1/C(=C\\c2cc(-c3ccccc3C(=O)O)c3cc(C(=O)N4CCOCC4)ccc3n2)C(=O)c2ccccc21", "IC50", "1 µM"),
    ("CC(=O)N1/C(=C\\c2ccc3cc(CO)ccc3n2)C(=O)c2ccccc21", "IC50", "3.1 µM"),
    ("CC(=O)N1/C(=C\\c2nc3ccc(-c4nnn[nH]4)cc3cc2-c2cccc3ccccc23)C(=O)c2ccccc21", "IC50", "28.9 µM"),
]

* * *

target.system: GTPγS-bound human HRasG12V / human c-Raf-1 Ras binding domain (RBD) (Homo sapiens (Human), UniProt P01112, G12V)
experimental.protocol: Ras-Raf binding inhibition ELISA
// reported inhibition at 1 µM for each item listed

# item.smiles, inhibition at 1 µM, %
measured = [
    ("CC(=O)N1/C(=C\\c2cc(-c3cccc(-c4ccccc4)c3)c3cc(C(=O)O)ccc3n2)C(=O)c2ccccc21", 53.5),
    ("CC(=O)N1CCc2cc(-c3cc(/C=C4/C(=O)c5ccccc5N4C(C)=O)nc4ccc(CNC5CCOCC5)cc34)ccc2C1", 71.2),
    ("CC(=O)N1/C(=C\\c2cc(-c3ccccc3C(=O)O)c3cc(C(=O)N4CCOCC4)ccc3n2)C(=O)c2ccccc21", 51.1),
    ("CC(=O)N1/C(=C\\c2cc(-c3cccc(C(=O)O)c3)c3cc(C(=O)N4CCOCC4)ccc3n2)C(=O)c2ccccc21", 67.2),
]

* * *

target.system: GTPγS-bound human HRasG12V / human c-Raf-1 Ras binding domain (RBD) (Homo sapiens (Human), UniProt P01112, G12V)
experimental.protocol: Ras-Raf binding inhibition ELISA
condition.description: anti-HRas antibody C-20; read-out: ELISA IC50 (μM): 1st Ab_C-20
Okay, here is how we bin by IC50: label 0: < 0.8 µM; label 1: ≥ 0.8 µM and < 1 µM; label 2: ≥ 1 µM

# item.smiles, classification
records = [
    ("CC(=O)N1/C(=C\\c2cc(-c3cccc(C(=O)O)c3)c3cc(C(=O)N4CCOCC4)ccc3n2)C(=O)c2ccccc21", "label 0"),
    ("CC(=O)N1/C(=C\\c2cc(-c3ccc4ccccc4c3)c3cc(CNC4CCOCC4)ccc3n2)C(=O)c2ccccc21", "label 1"),
    ("CC(=O)N1/C(=C\\c2cc(-c3ccc(-c4ccccc4)cc3)c3cc(C(=O)O)ccc3n2)C(=O)c2ccccc21", "label 1"),
    ("CC(=O)N1/C(=C\\c2cc(-c3ccccc3-c3ccccc3)c3cc(C(N)=O)ccc3n2)C(=O)c2ccccc21", "label 2"),
    ("CC(=O)N1/C(=C\\c2cc(-c3cccc4cccnc34)c3cc(C(=O)N4CCOCC4)ccc3n2)C(=O)c2ccccc21", "label 1"),
    ("CC(=O)N1/C(=C\\c2cc(-c3cccc(-c4cnn(C)c4)c3)c3cc(CNC4CCOCC4)ccc3n2)C(=O)c2ccccc21", "label 0"),
    ("CC(=O)N1/C(=C\\c2ccc3cc(C(=O)N4CCS(=O)(=O)CC4)ccc3n2)C(=O)c2ccccc21", "label 2"),
    ("CC(=O)N1/C(=C\\c2ccc3cc(CN4CCS(=O)(=O)CC4)ccc3n2)C(=O)c2ccccc21", "label 2"),
    ("CC(=O)N1/C(=C\\c2cc(-c3cccnn3)c3cc(C(=O)N4CCOCC4)ccc3n2)C(=O)c2ccccc21", "label 2"),
    ("CC(=O)N1/C(=C\\c2cc(-c3cccc4ccccc34)c3cc(C(=O)N4CCN(C5COC5)CC4)ccc3n2)C(=O)c2ccccc21", "label 0"),
    ("CC(=O)N1/C(=C\\c2cc(-c3cccc(-c4ccccc4)c3)c3cc(C(=O)O)ccc3n2)C(=O)c2ccccc21", "label 1"),
    ("CC(=O)N1/C(=C\\c2ccc3cc(C(=O)N4CCC(N5CCOCC5)CC4)ccc3n2)C(=O)c2ccccc21", "label 2"),
]
